Recorded growth values for a group of compounds are listed next.
Tested on: E. coli TESEC Mtb Asd
assay.overview: growth (OD600 after 10 h); higher = more growth (less inhibition)
experimental.setup: arabinose induction (level): Low; compound 0.1 mM; raw OD600 reference: median of DMSO wells 0.417, cell-free background 0.041
Counter-ions that a name gives are not always drawn.

growth recorded for this compound, CCN(CCCCOC(=O)c1ccc(OC)c(OC)c1)C(C)Cc1ccc(OC)cc1 (stereo not given) [Mebeverine hydrochloride] , is 0.396

growth recorded for this compound, `O=C1c2ccccc2S(=O)(=O)N1CCCCN1CCN(c2ncccn2)CC1` , is 0.389

growth recorded for this compound, `CC(=O)OCC(=O)[C@@]12N=C(C)O[C@@H]1C[C@H]1[C@@H]3CCC4=CC(=O)C=C[C@]4(C)[C@H]3[C@@H](O)C[C@@]12C` , is 0.396

growth recorded for this compound, CC(C)(CO)C(O)C(=O)NCCCO (stereo not given) , is 0.409

growth recorded for this compound, `CC1=C(/C=C/C(C)=C/C=C/C(C)=C/C(=O)O)C(C)(C)CCC1` , is 0.41

* * *

Recorded growth values for a group of compounds are listed next.
System: E. coli TESEC Mtb Alr
assay.overview: growth (OD600 after 10 h); higher = more growth (less inhibition)
experimental.setup: arabinose 10000 nM; compound 0.1 mM; raw OD600 reference: median of DMSO wells 0.264, cell-free background 0.041
Answer with the value's number alone.

Below are worked cases with known answers.
C#CCN[C@@H]1CCc2ccccc21 | 0.263
CC(=O)[C@H]1CC[C@H]2[C@@H]3CCC4=CC(=O)CC[C@]4(C)[C@H]3CC[C@]12C | 0.234

growth recorded for this compound, `Cn1c(=O)c2c(ncn2C)n(C)c1=O` , is 0.277

growth recorded for this compound, `CC(C)(O)c1ccccc1CC[C@@H](SCC1(CC(=O)O)CC1)c1cccc(/C=C/c2ccc3ccc(Cl)cc3n2)c1` , is 0.317

* * *

Recorded growth values for a group of compounds are listed next.
Test system: E. coli TESEC Mtb Alr
assay.overview: growth (OD600 after 10 h); higher = more growth (less inhibition)
experimental.setup: arabinose 1000000 nM; compound 0.1 mM; raw OD600 reference: median of DMSO wells 0.193, cell-free background 0.041
Structures can show the parent of a compound that is named as a salt.
Answer with the value's number alone.

Below are worked cases with known answers.
Cc1ccnc2c1NC(=O)c1cccnc1N2C1CC1 [Nevirapine] | 0.203
CCOc1ccc2c(c1)C(C)=CC(C)(C)N2 [Ethoxyquin] | 0.118
C=CC1=C(C(=O)O)N2C(=O)[C@@H](NC(=O)/C(=N\OCC(=O)O)c3csc(N)n3)[C@H]2SC1 [Cefixime] | 0.0407

growth recorded for this compound, COC(=O)[C@H]1[C@H]2C[C@@H]3c4[nH]c5cc(OC)ccc5c4CCN3C[C@H]2C[C@@H](OC(=O)c2cc(OC)c(OC)c(OC)c2)[C@@H]1OC [Reserpine] , is 0.193

growth recorded for this compound, CC(C)n1c(/C=C/C(O)CC(O)CC(=O)O)c(-c2ccc(F)cc2)c2ccccc21 (stereo not given) [Fluvastatin sodium salt] , is 0.0938

growth recorded for this compound, CCN(CC)CCc1nc(-c2ccccc2)no1 [Oxalamine citrate salt] , is 0.187

growth recorded for this compound, CCCCC1=NC2(CCCC2)C(=O)N1Cc1ccc(-c2ccccc2-c2nnn[nH]2)cc1 [Irbesartan] , is 0.0979

growth recorded for this compound, CC[C@H]1OC(=O)[C@H](C)[C@@H](O[C@H]2C[C@@](C)(OC)[C@@H](O)[C@H](C)O2)[C@H](C)[C@@H](O[C@@H]2O[C@H](C)C[C@H](N(C)C)[C@H]2O)[C@](C)(O)C[C@@H](C)C(=O)[C@H](C)[C@@H](O)[C@]1(C)O [Erythromycin] , is 0.0401

growth recorded for this compound, Nc1nc(/C(=C/CC(=O)O)C(=O)N[C@@H]2C(=O)N3C(C(=O)O)=CCS[C@H]23)cs1 [Ceftibuten] , is 0.138

growth recorded for this compound, CN1CCCCC1CCN1c2ccccc2Sc2ccc([S+](C)[O-])cc21 (stereo not given) [Mesoridazine besylate] , is 0.131

growth recorded for this compound, CCN1CC(CCN2CCOCC2)C(c2ccccc2)(c2ccccc2)C1=O (stereo not given) [Doxapram hydrochloride] , is 0.205

growth recorded for this compound, CC(=O)N(CC(O)CO)c1c(I)c(C(=O)NCC(O)CO)c(I)c(C(=O)NCC(O)CO)c1I (stereo not given) [Iohexol] , is 0.195

growth recorded for this compound, CC(C)NC[C@H](O)COc1ccc(CC(N)=O)cc1 [(S)-(-)-Atenolol] , is 0.184

* * *

Recorded growth values for a group of molecules are listed next.
Tested on: E. coli TESEC Alr+ wild-type control
assay.overview: growth (OD600 after 10 h); higher = more growth (less inhibition)
experimental.setup: compound 0.1 mM; raw OD600 reference: median of DMSO wells 0.241, cell-free background 0.041
Structures can show the parent of a compound that is named as a salt.
Answer with the value's number alone.

O=c1[nH]c(=O)n([C@H]2C[C@H](O)[C@@H](CO)O2)cc1I [Idoxuridine] | 0.246
Nc1nc(NC2CC2)c2ncn([C@H]3C=C[C@@H](CO)C3)c2n1 [Abacavir Sulfate] | 0.238
NC(=O)N1c2ccccc2CC(=O)c2ccccc21 [Oxcarbazepine] | 0.236
CN(C)CCOC(c1ccccc1)c1ccccc1.Cn1c(=O)c2[nH]c(Cl)nc2n(C)c1=O [Dimenhydrinate] | 0.213

For the next question, use this molecule.
Item CO[C@@]1(NC(=O)C2SC(=C(C(N)=O)C(=O)O)S2)C(=O)N2C(C(=O)O)=C(CSc3nnnn3C)CS[C@@H]21 (some centres not stated) [Cefotetan] ; assay system E. coli TESEC Alr+ wild-type control; growth reported as 0.0388

* * *

Tested on: E. coli TESEC Mtb DapB
assay.overview: growth (OD600 after 10 h); higher = more growth (less inhibition)
experimental.setup: arabinose induction (level): High; compound 0.1 mM; raw OD600 reference: median of DMSO wells […], cell-free background 0.041
Structures can show the parent of a compound that is named as a salt.
readout.kind: growth

growth recorded for this compound, CN(C)CCOC1=Cc2ccccc2Sc2ccc(Cl)cc21 [Zotepine] , is 0.171

growth recorded for this compound, CN(C)CCc1c[nH]c2ccc(Cn3cncn3)cc12 [Rizatriptan benzoate] , is 0.193

growth recorded for this compound, CN(C)CCOC(c1ccccc1)c1ccccc1 [Diphenhydramine hydrochloride] , is 0.195

growth recorded for this compound, `COc1ccc2c(c1)C(=O)N(CCc1ccc(S(=O)(=O)NC(=O)NC3CCCCC3)cc1)C(=O)C2(C)C` , is 0.157

growth recorded for this compound, `CC(=O)Oc1cccc2c1C(=O)c1c(OC(C)=O)cc(C(=O)O)cc1C2=O` , is 0.208

growth recorded for this compound, CCCNC(C)C(=O)Nc1ccccc1C (stereo unspecified) [Prilocaine hydrochloride] , is 0.178

* * *

Recorded growth values for a group of molecules are listed next.
System: E. coli TESEC Mtb Alr
assay.overview: growth (OD600 after 10 h); higher = more growth (less inhibition)
experimental.setup: arabinose 10000000 nM; compound 0.1 mM; raw OD600 reference: median of DMSO wells 0.146, cell-free background 0.041
Counter-ions that a name gives are not always drawn.
Answer with the value's number alone.

Below are worked cases with known answers.
c1ccc(CNc2ncnc3nc[nH]c23)cc1 | 0.149
NS(=O)(=O)c1cc(Cl)c(Cl)c(S(N)(=O)=O)c1 [Dichlorphenamide] | 0.131
CCCCc1nc(Cl)c(CO)n1Cc1ccc(-c2ccccc2-c2nnn[nH]2)cc1 | 0.13
CC(=O)OCC(CCn1cnc2cnc(N)nc21)COC(C)=O | 0.14
COc1cc(OC)c(C(=O)CCCN2CCCC2)c(OC)c1 [Buflomedil hydrochloride] | 0.146

growth recorded for this molecule, `COC(=O)C1=C(C)NC(C)=C(C(=O)OC)C1c1ccccc1[N+](=O)[O-]` , is 0.149

growth recorded for this molecule, c1ccc(CC2=NCCN2)cc1 [Tolazoline hydrochloride] , is 0.149

growth recorded for this molecule, `CN1CCN(C2=Nc3cc(Cl)ccc3Nc3ccccc32)CC1` , is 0.154

growth recorded for this molecule, CC(C)(C)NCC(O)COc1cccc2c1CC(O)C(O)C2 (configuration not stated) , is 0.137

growth recorded for this molecule, `C[C@]12C[C@H](O)[C@H]3[C@@H](CCC4=CC(=O)CC[C@@]43C)[C@@H]1CC[C@@H]2C(=O)CO` , is 0.134

* * *

Tested on: E. coli TESEC Mtb Alr
assay.overview: growth (OD600 after 10 h); higher = more growth (less inhibition)
experimental.setup: arabinose 100 nM; compound 0.1 mM; raw OD600 reference: median of DMSO wells 0.413, cell-free background 0.052
Where a name gives a salt, the structure may show the parent alone.
Recorded growth values for a group of compounds are listed next.
Answer with the value's number alone.

Below are worked cases with known answers.
C[C@H](CCC(=O)O)[C@H]1CC[C@H]2[C@@H]3[C@@H](O)C[C@@H]4C[C@H](O)CC[C@]4(C)[C@H]3CC[C@]12C | 0.399
O=C(O[C@@H]1C[C@@H]2C[C@H]3C[C@H](C1)N2CC3=O)c1c[nH]c2ccccc12 [Dolasetron mesilate] | 0.405
CNCC(O)c1ccc(OC(=O)C(C)(C)C)c(OC(=O)C(C)(C)C)c1 (centres undefined) [Dipivefrin hydrochloride] | 0.391
NNC(=O)c1ccncc1 | 0.405
CN1[C@@H]2CC[C@H]1C[C@@H](OC(c1ccccc1)c1ccccc1)C2 [Benztropine mesylate] | 0.41

growth recorded for this compound, COC(=O)C1=C(C)NC(C)=C(C(=O)OCCN(C)Cc2ccccc2)C1c1cccc([N+](=O)[O-])c1 (centres undefined) [Nicardipine hydrochloride] , is 0.394

growth recorded for this compound, CCOC(=O)NNc1nncc2ccccc12 [Todralazine hydrochloride] , is 0.406

growth recorded for this compound, CC(=O)Oc1cc(C(C)C)c(OCCN(C)C)cc1C [Moxisylyte hydrochoride] , is 0.41

growth recorded for this compound, `CC(=O)OCC(=O)[C@@]12N=C(C)O[C@@H]1C[C@H]1[C@@H]3CCC4=CC(=O)C=C[C@]4(C)[C@H]3[C@@H](O)C[C@@]12C` , is 0.394

growth recorded for this compound, CC(CN(C)C)C(C)(O)Cc1ccc(Cl)cc1 (centres undefined) [Clobutinol hydrochloride] , is 0.405

growth recorded for this compound, CN1CCN(CCCN2c3ccccc3Sc3ccc(S(=O)(=O)N(C)C)cc32)CC1 [Thioproperazine dimesylate] , is 0.404
